Exercise: state measured viability for each of the compounds provided.
ASSAY INFO: growth suppression of PTEN-deleted HCT116, pilot screen, cell-based, HCT116 clonal line, CellTiter-Glo (AID 824);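 note: 0% = 20 µM Hyamine control and 100% = vehicle cell control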
EXPERIMENTAL SETUP: 60 h, at 10 µM, active compounds read low
Records with an inconclusive call do not appear.
Reply with just the number (in %).

IN: Quick check: viability of `CCCCN(C)CCC(=O)Nc1ccc(OC)cc1OC` ?
OUT: 86.4

IN: Find the recorded viability belonging to `COc1ccc(-c2cn3c(C)c(C(=O)N4CCN(c5ccccc5)CC4)sc3n2)cc1` and report it.
OUT: 95.6

IN: Requested field: viability. Item: `COc1ccc(C(=O)Nc2cccc(C(C)=O)c2)cc1S(=O)(=O)N1CCOCC1`
OUT: 96

IN: For the compound `COc1ccc(OC)c(NC(=O)c2nnn(CCc3ccccc3)c2N)c1` , what viability is on record?
OUT: 89.7

IN: Consider the compound `Cc1cccc(Cn2c(CN3CCN(Cc4ccccc4)CC3)nc3c2c(=O)[nH]c(=O)n3C)c1` and give its measured viability.
OUT: 48.6

IN: # viability lookup, item `Cc1ccc(S(=O)(=O)Cc2ccc(C(=O)N3CCCC3)o2)cc1`
OUT: 108

IN: Please give the measured viability for this compound: `CCCc1cc(C(=O)NCC(C)C)no1`
OUT: 101

IN: Which value of viability has been reported for CCCOc1ccc(N2CC(C(=O)Nc3ccccc3OC)CC2=O)cc1 (configuration not stated) in the records?
OUT: 93.7

IN: Give its viability value. Item: `Cc1nnc(SCCn2c(N3CCN(c4ccccc4)CC3)nc3c2c(=O)n(C)c(=O)n3C)s1`
OUT: 102

IN: Item `COCCNC(=O)CN(c1ccc(C)cc1)S(=O)(=O)c1ccc(SC)cc1` has what recorded viability?
OUT: 84.2

IN: Entry `Cc1cccc(-c2noc(CCc3ccccc3)n2)c1` has what viability?
OUT: 98.1

IN: What measured viability goes with `CCC(=O)c1ccc(CCCCCC(=O)O)s1` ?
OUT: 98.7

---

Assignment: determine reported growth inhibition for the given compounds.
ASSAY INFO: Restrictive medium S. cerevisiae growth inhibition, OD615, pilot screen of yeast lifespan reduction project, restrictive growth control (AID 706);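 note: modified DeaD lifespan yeast strain shifted to restrictive glucose medium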
EXPERIMENTAL SETUP: OD615, 48 h, at 10 µM, active compounds read high
Numeric answer only, unit % assumed.

IN: Look up growth inhibition: `COc1ccc(-n2c(SCC(=O)Nc3cc(C)on3)nc3c(c2=O)SCC3)cc1`
OUT: -6.83

IN: Could you tell me which growth inhibition is on file for Cc1cccc(CCNC(=O)C2CCC(CNc3c(N4CCCC4)c(=O)c3=O)CC2)c1 (stereo unspecified) ?
OUT: -3.19

IN: Dear colleague, I am looking for the recorded growth inhibition of the following compound: CC1CCCC(NC(=O)CN(C)S(=O)(=O)c2cccc3cccnc23)C1C (stereo unspecified)
OUT: -18.7

IN: Find the recorded growth inhibition belonging to `COc1cc(CC(=O)O)c(C(C)=O)cc1OC` and report it.
OUT: 0.155

IN: Looking for the measured growth inhibition of `O=S(=O)(CCc1nnc(-c2ccccc2)o1)c1ccc2ccccc2c1` , can you help?
OUT: -6.19

IN: What does the record list as growth inhibition for `COc1cc(C(=O)Nc2cc(-c3nc4cc(C)ccc4o3)ccc2C)cc(OC)c1OC` ?
OUT: 8.25

// provenance: PubChem BioAssay
